The entries below are paired with their reported Efficacy.
- System: Bile acid receptor (Homo sapiens) (UniProt Q96RI1)
- Sequence (Q96RI1 whole entry, the tested form may be a part): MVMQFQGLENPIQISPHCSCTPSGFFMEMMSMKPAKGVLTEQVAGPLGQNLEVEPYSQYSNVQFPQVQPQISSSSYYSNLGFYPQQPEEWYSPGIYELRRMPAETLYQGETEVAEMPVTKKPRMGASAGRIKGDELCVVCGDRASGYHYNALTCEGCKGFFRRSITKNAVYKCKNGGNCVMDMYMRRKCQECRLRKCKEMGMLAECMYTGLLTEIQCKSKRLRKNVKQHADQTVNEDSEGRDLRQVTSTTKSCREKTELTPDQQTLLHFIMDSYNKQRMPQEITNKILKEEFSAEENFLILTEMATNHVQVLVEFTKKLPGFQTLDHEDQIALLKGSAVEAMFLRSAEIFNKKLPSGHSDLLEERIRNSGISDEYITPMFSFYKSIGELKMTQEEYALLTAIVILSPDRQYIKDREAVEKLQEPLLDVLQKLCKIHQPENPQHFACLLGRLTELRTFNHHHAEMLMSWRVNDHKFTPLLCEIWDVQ
- Assay Info: Agonist activity at recombinant human GST-tagged FXR LBD (193 to 472 residues) expressed in baculovirus-infected insect cells assessed as recruitment of biotinylated SRC1 peptide measured after 1 hr by Alphascreen assay relative to CDCA
Answer format: numeric, % implied, no suffix.

Field: example entries. Status: answers known.
{"columns": ["Molecule", "Unit Of Measure", "Efficacy"],
 "data": [
  ["CC[C@H]1[C@@H](O)[C@@H]2[C@H](CC[C@]3(C)[C@@H]([C@H](C)CCNC(=O)OC(C)C)CC[C@@H]23)[C@@]2(C)CC[C@@H](O)C[C@@H]12", "%", 162],
  ["CC[C@H]1[C@@H](O)[C@@H]2[C@H](CC[C@]3(C)[C@@H]([C@H](C)CCC(=O)O)CC[C@@H]23)[C@@]2(C)CCC3(CC3)C[C@@H]12", "%", 68]
]}

Now for a further molecule.
Q: Write down Efficacy measured for item CC[C@H]1[C@@H](O)[C@@H]2[C@H](CC[C@]3(C)[C@@H]([C@H](C)CCC4NC(=O)NC4=O)CC[C@@H]23)[C@@]2(C)CC[C@@H](O)C[C@@H]12 (stereo partly drawn)
A: 202
